Data origin, for the record: patent US20240124478A1

Parameter IC50: see the listing below.
target: recombinant biotinylated KRAS protein containing G12C/C51S/C80L/C118S mutations (Biotinylated KRAS G12C protein) (Homo sapiens (Human), UniProt P01116, C118S/C51S/C80L/G12C); assay: SOS-catalyzed nucleotide exchange assay (TR-FRET); format: biochemical; details: apparent potency; preincubation time of 60 minutes prior to addition of SOS
Sequence (P01116 other isoform, or with tags, fused parts or gaps, stated change not applied): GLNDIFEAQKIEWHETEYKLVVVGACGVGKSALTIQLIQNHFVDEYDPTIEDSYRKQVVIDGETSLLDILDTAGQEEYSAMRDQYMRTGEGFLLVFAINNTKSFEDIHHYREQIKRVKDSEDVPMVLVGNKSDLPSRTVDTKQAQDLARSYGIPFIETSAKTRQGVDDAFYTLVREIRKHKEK

COMPOUND: C=CC(=O)N1CCN(c2nc(C(=O)N[C@H](C)CN(C)C)nc3c2CCC2(CCCc4cccc(C)c42)O3)CC1 (single isomer, unassigned) [Example 19a]
IC50: 8470 nM
--
COMPOUND: C=CC(=O)N1CCN(c2nc(OC[C@@H]3CCCN3C)nc3c2CCC2(CCCc4c(F)cccc42)O3)C[C@@H]1CC#N (single isomer, unassigned) [Example 3a]
IC50: 14.5 nM
--
COMPOUND: C=CC(=O)N1CCN(c2nc(OC[C@@H]3CCCN3C)nc3c2CCC2(CC(C)c4ccccc42)O3)C[C@@H]1CC#N (single isomer, unassigned) [Example 25d]
IC50: 113 nM

---

Biological target: recombinant biotinylated KRAS protein containing G12C/C51S/C80L/C118S mutations (Biotinylated KRAS G12C protein) (Homo sapiens (Human), UniProt P01116, C118S/C51S/C80L/G12C)
Assay: SOS-catalyzed nucleotide exchange assay (TR-FRET)
Assay type: biochemical
Conditions: apparent potency; preincubation time of 60 minutes prior to addition of SOS
Experimental: The SOS-catalyzed nucleotide exchange assay utilizes a preformed complex of recombinant biotinylated KRAS protein containing G12C/C51S/C80L/C118S mutations (183 amino acids; biotin on K10; leader sequence which is an AviTag; referred to as SEQ ID NO: 1 or “Biotinylated KRAS G12C protein” hereafter), Bodipy-GDP, and Terbium-streptavidin. Compounds are added to this complex and then after 60 minutes incubation time, the mixture is treated with recombinant SOS protein and unlabeled GTP. […]

COMPOUND: C=CC(=O)N1CCN(c2nc(OC[C@@H]3CCCN3C)nc3c2CCC2(CCc4ccccc42)O3)CC1 (single isomer, unassigned) [Example 22a]
IC50: 6320 nM
--
COMPOUND: C=CC(=O)N1CCN(c2nc(OC[C@@H]3CCCN3C)nc3c2CCC2(CCCc4cccc(C)c42)O3)C[C@@H]1CC#N (single isomer, unassigned) [Example 1b]
IC50: 54.9 nM
--
COMPOUND: C=CC(=O)N1CCN(c2nc(OC[C@@H]3CCCN3C)nc3c2CCC2(O3)c3ccccc3-c3ccccc32)C[C@@H]1CC#N
IC50: 68.6 nM
--
COMPOUND: C=CC(=O)N1CCN(c2nc(OC[C@@H]3CCCN3C)nc3c2CCC2(CCc4c2ccc2[nH]ncc42)O3)C[C@@H]1CC#N (single isomer, unassigned) [Example 28b]
IC50: 2330 nM
--
COMPOUND: C=CC(=O)N1CCN(c2nc(OC[C@@H]3CCCN3C)nc3c2CCC2(CCCc4cccc(C)c42)O3)CC1 (single isomer, unassigned) [Example 24a]
IC50: 2390 nM
--
COMPOUND: C=CC(=O)N1CCN(c2nc(OC[C@@H]3CC(F)(F)CN3C)nc3c2CCC2(CCCc4ccccc42)O3)C[C@@H]1CC#N (single isomer, unassigned) [Example 16b]
IC50: 109 nM
--
COMPOUND: C=CC(=O)N1CCN(c2nc(OC[C@@H]3CCCN3C)nc3c2CCC2(CC(C)c4ccccc42)O3)C[C@@H]1CC#N (single isomer, unassigned) [Example 25a]
IC50: 14.2 nM
--
COMPOUND: C=CC(=O)N1CCN(c2nc(OC[C@@H]3CCCN3C)nc3c2CCC2(CCC(F)(F)c4ccccc42)O3)C[C@@H]1CC#N (single isomer, unassigned) [Example 7a]
IC50: 77.3 nM
--
COMPOUND: C=CC(=O)N1CCN(c2nc(OC[C@@H]3CCCN3C)nc3c2CCC2(CC(C)c4ccccc42)O3)C[C@@H]1CC#N (single isomer, unassigned) [Example 25b]
IC50: 11.6 nM
--
COMPOUND: C=CC(=O)N1CCN(c2nc(OCC[C@@H]3CCCN3C)nc3c2CCC2(CCCc4ccccc42)O3)C[C@@H]1CC#N (single isomer, unassigned) [Example 5b]
IC50: 274 nM
--
COMPOUND: C=CC(=O)N1CCN(c2nc(OCC3(CN(C)C)CC3)nc3c2CCC2(CCCc4ccccc42)O3)C[C@@H]1CC#N (single isomer, unassigned) [Example 12b]
IC50: 728 nM
--
COMPOUND: C=CC(=O)N1CCN(c2nc(OC[C@@H]3CCCN3C)nc3c2CCC2(CCCc4ccnc(O)c42)O3)C[C@@H]1CC#N (mixture of isomers)
IC50: 990 nM
--
COMPOUND: C=CC(=O)N1CCN(c2nc(N3CC(N(C)C)C3)nc3c2CCC2(CCCc4ccccc42)O3)C[C@@H]1CC#N (single isomer, unassigned) [Example 20b]
IC50: 80.4 nM
--
COMPOUND: C=CC(=O)N1CCN(c2nc(OC[C@@H]3CCCN3C)nc3c2CCC2(CCCc4ccccc42)O3)[C@@H](C)C1 (some centres unmarked) [Example 13a]
IC50: 576 nM
--
COMPOUND: C=CC(=O)N1CCN(c2nc(OC[C@@H]3CCCN3C)nc3c2CCC2(CCC(C)(C)c4ccccc42)O3)C[C@@H]1CC#N (single isomer, unassigned) [Example 6b]
IC50: 413 nM
--
COMPOUND: C=CC(=O)N1CCN(c2nc(OC[C@@H]3CCCN3C)nc3c2CCC2(O3)c3ccccc3CC2(C)C)C[C@@H]1CC#N (single isomer, unassigned) [Example 27a]
IC50: 1080 nM
--
COMPOUND: C=CC(=O)N1CCN(c2nc(OC[C@@H]3CCCN3C)nc3c2CCC2(CCCc4cccc(Cl)c42)O3)CC1 (single isomer, unassigned) [Example 23a]
IC50: 5070 nM
--
COMPOUND: C=CC(=O)N1CCN(c2nc(OC[C@@H]3CCCN3C)nc3c2CCC2(CCCc4ccccc42)O3)CC1 (single isomer, unassigned) [Example 21a]
IC50: 5340 nM
--
COMPOUND: C=CC(=O)N1CCN(c2nc(OC[C@@H]3CCCN3C)nc3c2CCC2(Cc4ccccc4C2)O3)C[C@@H]1CC#N
IC50: 5010 nM
--
COMPOUND: C=CC(=O)N1CCN(c2nc(C(N)=O)nc3c2CCC2(CCCc4ccccc42)O3)C[C@@H]1CC#N (single isomer, unassigned) [Example 18b]
IC50: 268 nM
--
COMPOUND: C=CC(=O)N1CCN(c2nc(OC[C@@H]3CCCN3C)nc3c2CCC2(CCC(F)(F)c4ccccc42)O3)C[C@@H]1CC#N (single isomer, unassigned) [Example 7b]
IC50: 119 nM
--
COMPOUND: C=CC(=O)N1CCN(c2nc(OC[C@@H]3CCCN3CC)nc3c2CCC2(CCCc4ccccc42)O3)C[C@@H]1CC#N (single isomer, unassigned) [Example 15a]
IC50: 43.4 nM
--
COMPOUND: C=CC(=O)N1CCN(c2nc(OC[C@@H]3CC(F)(F)CN3C)nc3c2CCC2(CCCc4ccccc42)O3)C[C@@H]1CC#N (single isomer, unassigned) [Example 16a]
IC50: 18.9 nM

---

molecular target: recombinant biotinylated KRAS protein containing G12C/C51S/C80L/C118S mutations (Biotinylated KRAS G12C protein) (Homo sapiens (Human), UniProt P01116, C118S/C51S/C80L/G12C); experiment: SOS-catalyzed nucleotide exchange assay (TR-FRET); type: biochemical; conditions: apparent potency; preincubation time of 60 minutes prior to addition of SOS
IC50 strictly less than 80 nM = fulfilled. Otherwise not fulfilled.

COMPOUND: C=CC(=O)N1CCN(c2nc(OC[C@@H]3CCCN3C)nc3c2CCC2(CCC(C)c4ccccc42)O3)C[C@@H]1CC#N (single isomer, unassigned) [Example 9a]
CLASS LABEL: fulfilled
//
COMPOUND: C=CC(=O)N1CCN(c2nc(OC[C@@H]3CCCN3C)nc3c2CCC2(CCCc4c(C)cc(C)cc42)O3)C[C@@H]1CC#N (single isomer, unassigned) [Example 11a]
CLASS LABEL: fulfilled
//
COMPOUND: C=CC(=O)N1CCN(c2nc(OC[C@@H]3CCCN3C)nc3c2CCC2(CCc4ccccc42)O3)C[C@@H]1CC#N (single isomer, unassigned) [Example 4b]
CLASS LABEL: not fulfilled
//
COMPOUND: C=CC(=O)N1CCN(c2nc(OC[C@@H]3CCCN3C)nc3c2CCC2(CCC(C)c4ccccc42)O3)C[C@@H]1CC#N (single isomer, unassigned) [Example 9d]
CLASS LABEL: not fulfilled
//
COMPOUND: C=CC(=O)N1CCN(c2nc(OC[C@@H]3CCCN3CC)nc3c2CCC2(CCCc4ccccc42)O3)C[C@@H]1CC#N (single isomer, unassigned) [Example 15b]
CLASS LABEL: not fulfilled
